Origin of measurements: ChEMBL document CHEMBL1201862

- Test system: MOLT-4
- assayNotes: NCI tumour cell line growth inhibition, 48 h
Calls of active or inactive are those of the source. No stated cut-off is given here; in the data, active = GI50 up to about 1.1 µM and inactive = higher.
Outcome field: choose from active, inactive

Known results for compounds:
compound	testTarget	labelClass
NCCN1CCCCCc2ccccc21	MOLT-4	inactive
OC1=CN=COc2ccccc21	MOLT-4	inactive
CCn1c(CCl)nc2c1C(=O)c1ccccc1C2=O	MOLT-4	active
CC(C)C(C/C=C1\CC(CO)(COC(=O)c2ccccc2)OC1=O)C(C)C (stereo not drawn)	MOLT-4	inactive
CC[C@@H]1OC2(C)CC(S(=O)(=O)c3ccccc3)CC1O2 (stereo partly drawn)	MOLT-4	inactive
COc1cccc2c1-c1c(OC)cccc1SS2	MOLT-4	inactive
COc1ccc2oc(=O)c3c(c2c1C)OC(C)(C)C=C3	MOLT-4	inactive
CC(=O)C1C(=O)C(=O)N(c2ccc([N+](=O)[O-])cc2)C1=O (stereo not drawn)	MOLT-4	inactive

Prompt: Name the outcome recorded for "Cc1cc(=O)n(-c2c(C)cccc2Cl)c(/C=C(\O)c2ccncc2)n1" in the assay.
Response: inactive

Prompt: Lab log entry: "CC1=C2C=CC(=O)C[C@@]2(C)CCC1" — outcome as called in the assay?
Response: inactive

Prompt: Called result for "N#C/C(=C/c1ccc[nH]1)P(=O)(O)O"
Response: inactive

Prompt: Could you kindly confirm the outcome this assay logged for "Cc1ccc2c(O)cc(-c3ccc(Cl)cc3)nc2n1" ?
Response: inactive

Prompt: Assay outcome for "CN(/N=C/c1ccccc1C(=O)O)C1=NCCCCN1" : what was it?
Response: inactive

---

# key: entry, value: GI50
- System: SF-295
- assayNotes: NCI tumour cell line growth inhibition, 48 h
Active and inactive are the calls of the source. Rule as the data show it: active = GI50 up to about 1.1 µM and inactive = higher.

Known results for molecules:
molecule	GI50
COc1cc2ccccc2c2cc([N+](=O)[O-])oc12	1.39 µM (inactive)
CC(C)=CCC/C(C)=C/Cc1c2c(c3oc(-c4ccc(O)c(O)c4)c(O)c(=O)c3c1O)C=CC(C)(C)O2	5.62 µM (inactive)
CCOc1ccc(NC(=O)C(=O)CC(=O)c2c[n+]([O-])c3cc(C)c(C)cc3[n+]2[O-])cc1	> 100 µM (inactive)

Prompt: Which GI50 is reported with SF-295 for this entry: CC1(C)OCC2OC3([C@@H]4OC(C)(C)O[C@H]4CO)OC(C)(C)OC3C2O1 (some centres undefined) ?
Response: > 100 µM (inactive)

Prompt: What GI50 appears in the records for this molecule with SF-295? "COc1c(C(=O)/C(=N/Nc2cccc(Cl)c2)C(C)=O)c(O)c(OC)c2occc12"
Response: 58.1 µM (inactive)

---

- System: MDA-N
- assayNotes: NCI tumour cell line growth inhibition, 48 h
Calls of active or inactive are those of the source. No stated cut-off is given here; in the data, active = GI50 up to about 1.1 µM and inactive = higher.
quantityMeasured: GI50

Would you please look over these solved cases?
compound	GI50
COC(O)C(=O)c1c2c(cc3c1CCC3)CCCC2 (stereo unspecified)	13 µM (inactive)
O=[N+]([O-])c1ccc(-c2cn(-c3ccc(Cl)cc3)cn2)cc1	> 100 µM (inactive)
Cc1ccc2c(O)cc(-c3ccc(Cl)cc3)nc2n1	1.56 µM (inactive)
Cn1c2c(c3ccccc31)CCN(CCCCN1CCN(c3ccccc3)CC1)C2=O	21.6 µM (inactive)
COC(=O)[C@@H]1CC(C(C[N+](=O)[O-])c2ccc(O[Si](C)(C)C(C)(C)C)cc2)C(=O)N1C(=O)OC(C)(C)C (stereo partly specified)	> 100 µM (inactive)

Prompt: Provide value of GI50 for this record tested with MDA-N: "CN(C)CCCCN1CCc2c(n(C)c3ccccc23)C1=O"
Response: 13.4 µM (inactive)

Prompt: GI50 of CN1C(C)(C)CC(=O)C(Br)C1(C)C (stereo unspecified) on MDA-N?
Response: > 100 µM (inactive)

Prompt: For MDA-N, provide GI50 of CC(=O)OC12CC[N+]3(C)CCCCC3C1=Nc1ccccc12 (stereo unspecified) please.
Response: > 100 µM (inactive)

Prompt: What GI50 appears in the records for this compound with MDA-N? "CN(/N=C/c1ccccc1C(=O)O)C1=NCCCCN1"
Response: > 100 µM (inactive)

Prompt: Short answer please: GI50, MDA-N, entry O=C1CC(Sc2nc3ccc(I)cc3c(=O)n2Cc2ccccc2)C(=O)NN1 (stereo unspecified)
Response: 18 µM (inactive)

Prompt: Give GI50 (MDA-N) of the following compound: "CCOC(=O)c1nc2cc(C(F)(F)F)ccc2nc1Nc1ccc(F)cc1"
Response: > 100 µM (inactive)
